# experiment_notes: modulators of S6 phosphorylation in cells, primary screen, cell-based, A549, cytoblot, luminescence, serum-stimulated (AID 1158);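 also: serum-stimulated A549 lung adenocarcinoma cells; signal is phosphorylated S6 detected by cytoblot immunostaining with HRP secondary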
# experimental_parameters: A549 phospho-S6 cytoblot, 5 h, higher = more signal
Classify by measured z-score: TRUE if it is equal to or exceeds -0.5, FALSE if it is smaller.

q: Textbook exercise: given the entry "O=C1C[C@]2(c3ccc([N+](=O)[O-])cc3)C(=O)N(CCN3CCOCC3)c3cc(CO)ccc3[C@H]2N1C1CCCCC1" , state whether its z-score is greater than or equal to -0.5.
a: TRUE

q: Textbook exercise: given the entry COc1ccc(COC2OC[C@]3(C)[C@H]4C5=C(CN3C(=O)OC(C)(C)C)[C@H](C)C(CO)C(CO)C5CC[C@@H]24)cc1 (stereo partly drawn) , state whether its z-score is greater than or equal to -0.5.
a: TRUE

q: Textbook exercise: given the entry "C[C@@H]1ON(c2cccc(C(=O)OC(C)(C)C)c2)[C@H](c2ccc(Br)cc2)[C@H]1C(=O)N1C(=O)OC[C@H]1Cc1ccccc1" , state whether its z-score is greater than or equal to -0.5.
a: TRUE

q: Textbook exercise: given the entry "CCCCC=C[C@@H](NC(=O)Oc1cccc(C(F)(F)F)c1)c1ccccc1" , state whether its z-score is greater than or equal to -0.5.
a: TRUE

q: Textbook exercise: given the entry CCCCC(O)C1C=CC2C(=O)N(c3ccccc3)C(=O)C2N1Nc1ccccc1F (stereo not drawn) , state whether its z-score is greater than or equal to -0.5.
a: FALSE

q: Textbook exercise: given the entry O=C1OCC=C[C@H]2OC34C=CCN(c5ccc6ccccc6c5)C(=O)[C@H]3N(CCCCCCO)C(=O)[C@@H]4[C@@H]12 (stereo partly drawn) , state whether its z-score is greater than or equal to -0.5.
a: TRUE

q: Textbook exercise: given the entry O=C1C2C=CC(C(O)c3ccc(F)cc3)N(Nc3ccccc3F)C2C(=O)N1c1ccccc1 (stereo not drawn) , state whether its z-score is greater than or equal to -0.5.
a: FALSE

====

# experiment_notes: A549 cell viability effects, profiling panel, calcein-AM fluorescence, 48 h, basal (AID 1162); also: test concentration not given here
# experimental_parameters: higher = more signal
assay_metric: z-score
The response must contain the number and no unit.

q: Please give the documented z-score of "COCCOC(=O)N1C(=O)[C@@]2(c3cc(C#Cc4ccc(OC)cc4)ccc31)[C@H](c1ccc(O)cc1)N1[C@H](c3ccccc3)[C@H](c3ccccc3)OC(=O)[C@H]1[C@@H]2C(=O)NC[C@H](O)c1ccccc1"
a: -0.828

q: Please give the documented z-score of "COc1cc2c(cc1OC)CN(C(=O)[C@@H]1[C@H]3C(=O)O[C@H](c4ccccc4)[C@H](c4ccccc4)N3[C@H](c3ccc(O)cc3)[C@@]13C(=O)Nc1ccc(C#CC4(O)CCCCCC4)cc13)CC2"
a: 0.192

q: Please give the documented z-score of "C=C[C@H](COC(C)=O)N(C(=O)OC(C)(C)C)S(=O)(=O)c1ccc(Br)cc1"
a: 1.67

====

Assignment: determine reported composite z-score for the given compounds.
# experiment_notes: small-molecule binders of probe aInhba, primary screen, biochemical, small-molecule microarray, 635/667 nm fluorescence (AID 1148);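 also: score merges 667nm spot fluorescence with signal-to-noise for antibody binding to printed compounds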
# experimental_parameters: higher = more signal

q: Please give the documented composite z-score of "C=CCNC(=O)[C@H]1[C@@H]2C(=O)O[C@@H](c3ccccc3)[C@@H](c3ccccc3)N2[C@@H](c2ccccc2OCCO)[C@]12C(=O)Nc1ccc(C#CC3=CCCCC3)cc12"
a: 0.0074

q: Please give the documented composite z-score of "COc1ccc(C(=O)Nc2cccc(CN3C(=O)[C@]4(O[C@H](CCO)[C@@H]([Si](C)(C)c5ccc(OC)cc5)[C@@H]4C)c4ccccc43)c2)cc1"
a: -0.121

q: Please give the documented composite z-score of "CC(C)(C)OC(=O)CC[C@@]1(C(N)=O)N=C(c2ccc(OCCCO)cc2)O[C@@H]1c1ccccc1"
a: -0.0533

q: Please give the documented composite z-score of "COc1cc2c(cc1OC)CN(C(=O)[C@H]1[C@@H]3C(=O)O[C@@H](c4ccccc4)[C@@H](c4ccccc4)N3[C@@H](c3ccc(O)cc3)[C@]13C(=O)Nc1ccc(C#CCNC(N)=O)cc13)CC2"
a: 0.0357

q: Please give the documented composite z-score of "COc1ccc([C@H]2C[C@H]3C(Br)=C[C@@H]2C(=O)[C@]32CO2)cc1"
a: -0.0822

q: Please give the documented composite z-score of "COCCOC(=O)N1C(=O)[C@@]2(c3ccccc31)[C@H](c1ccc(O)cc1)N1[C@H](c3ccccc3)[C@H](c3ccccc3)OC(=O)[C@H]1[C@@H]2C(=O)NC[C@H](O)c1ccccc1"
a: 0.0051

q: Please give the documented composite z-score of CC(CO)N1C(=O)[C@@H]2C3C(=O)OCCC/C=C\[C@H]3OC23C=CCN(c2ccc4ccccc4c2)C(=O)[C@@H]13 (stereo partly specified)
a: -0.0719

q: Please give the documented composite z-score of "CCOC(=O)C[C@H]1[C@H](OC(=O)Cc2ccc3c(c2)OCO3)[C@@H](NC(=O)c2ccc(-c3ccccc3)cc2)c2cc(OCCCO)ccc2N1C(=O)c1ccc2ccccc2n1"
a: -0.231

q: Please give the documented composite z-score of "CCCCC=C[C@@H](NC(=O)Oc1cccc(C(F)(F)F)c1)c1ccccc1"
a: 0.996

q: Please give the documented composite z-score of "COC(=O)[C@@]1(Cc2ccc(F)cc2)[C@H]2c3cc(C(=O)N(C)C)n(Cc4ccc(S(C)(=O)=O)cc4)c3C[C@H]2CN1C(=O)c1ccccc1"
a: 0.266

q: Please give the documented composite z-score of "CCOC(=O)C[C@H]1[C@H](OC(=O)Cc2ccc3c(c2)OCO3)[C@@H](NC(=O)c2ccc(-c3ccccc3)cc2)c2cc(OCCCO)ccc2N1C(=O)Cc1ccc(OC)cc1"
a: -0.0754

q: Please give the documented composite z-score of "C=CCOC(=O)[C@H]1[C@@H]2C(=O)O[C@@H](c3ccccc3)[C@@H](c3ccccc3)N2[C@@H](c2ccc(OCCOC(=O)[C@H]3C[C@H]4C(=O)N5CCC[C@H]5C(=O)N4[C@H]3c3ccc(O)cc3)cc2)[C@]12C(=O)Nc1ccc(I)cc12"
a: 1.3

q: Please give the documented composite z-score of COc1ccc(C(O)C2C=CC3C(=O)NC(=O)C3N2Nc2ccccn2)cc1 (stereo unspecified)
a: 0.0659

q: Please give the documented composite z-score of "COCCOC(=O)N1C(=O)[C@@]2(c3cc(C#Cc4ccc(OC)cc4)ccc31)[C@H](C(N)=O)[C@H]1C(=O)O[C@H](c3ccccc3)[C@H](c3ccccc3)N1[C@@H]2c1ccccc1OCCO"
a: 0.398

q: Please give the documented composite z-score of "O=C1O[C@H](c2ccccc2)[C@H](c2ccccc2)N2[C@H]1[C@@H](C(=O)Nc1nc3ccccc3s1)[C@]1(C(=O)Nc3ccc(C#CCCO)cc31)[C@H]2c1ccc(OCCO)cc1"
a: 0.532

q: Please give the documented composite z-score of "COC(=O)[C@@]1(Cc2ccccc2)[C@H]2c3cc(C(=O)N(C)C)n(CCSCCO)c3C[C@H]2CN1C(=O)c1ccccc1"
a: -0.0589

q: Please give the documented composite z-score of "[N-]=[N+]=NCc1ccccc1[C@@H]1OC(c2ccc(OCCCO)cc2)=N[C@]1(CCS(=O)(=O)c1ccccc1)C(=O)NCc1ccccc1"
a: 1.09

q: Please give the documented composite z-score of "COC(=O)[C@@]1(Cc2ccc(OC)cc2)[C@H]2c3cc(C(=O)N(C)C)n(Cc4cccc5ccccc45)c3C[C@H]2CN1C(=O)c1ccccc1"
a: 0.943

q: Please give the documented composite z-score of "COc1ccc([Si](C)(C)[C@H]2[C@H](CCO)O[C@@]3(C(=O)N(C)c4c(Br)cc(C)cc43)[C@@H]2C)cc1"
a: -0.0523

q: Please give the documented composite z-score of "CC(=O)N1Cc2ccccc2C[C@@]2(COC(c3ccc(OCCCO)cc3)=N2)C1=O"
a: 0.407

q: Please give the documented composite z-score of "O=C1O[C@@H](c2ccccc2)[C@@H](c2ccccc2)N2[C@@H](c3ccccc3OCCO)[C@]3(C(=O)Nc4ccc(C#CC5=CCCCC5)cc43)[C@@H](C(=O)Nc3nc4ccccc4s3)[C@H]12"
a: 0.0516
